Biological target: HAT1 (Homo sapiens)
Sequence (O14929 whole entry, species assumed): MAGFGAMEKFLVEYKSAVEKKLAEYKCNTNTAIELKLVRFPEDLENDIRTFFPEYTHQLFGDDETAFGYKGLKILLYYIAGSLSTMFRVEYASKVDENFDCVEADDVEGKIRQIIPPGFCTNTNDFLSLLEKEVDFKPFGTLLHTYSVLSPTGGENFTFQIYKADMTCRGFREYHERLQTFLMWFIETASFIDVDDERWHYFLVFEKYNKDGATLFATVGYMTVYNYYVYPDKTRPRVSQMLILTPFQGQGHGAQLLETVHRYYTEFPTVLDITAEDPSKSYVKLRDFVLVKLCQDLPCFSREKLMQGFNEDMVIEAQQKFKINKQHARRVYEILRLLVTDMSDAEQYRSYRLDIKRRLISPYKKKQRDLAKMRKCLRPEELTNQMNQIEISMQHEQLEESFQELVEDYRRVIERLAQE
Experiment: Histone acetyltransferase (HAT) activity assay;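 note: HAT selectivity screen of BRD probe compounds, enzyme activity in % measured with compound at 1 µM and 10 µM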
Assay type: biochemical
Conditions: 1µM
quantity_name: HATs Activity (%)
# number only, unit % dropped from output

// field: HATs Activity (%); key: COc1cc2c(cc1NS(=O)(=O)c1ccc(Br)cc1C)n(C)c(=O)n2C ; value = 92

// field: HATs Activity (%); key: COc1cc(C#N)ccc1S(=O)(=O)Nc1ccc2c(c1)cc(C)c(=O)n2C ; value = 104

// field: HATs Activity (%); key: COc1ccccc1C(=O)Nc1cc2c(cc1N1CCNC[C@H]1C)n(C)c(=O)n2C ; value = 100

// field: HATs Activity (%); key: COc1ccccc1S(=O)(=O)Nc1ccc2c(c1)CN(C)C(=O)N2 ; value = 102

// field: HATs Activity (%); key: CCn1cc(-c2cccc(C(F)(F)F)c2)c2sc(C(=N)NC3CCS(=O)(=O)CC3)cc2c1=O ; value = 103

// field: HATs Activity (%); key: Cc1cc(=O)n(C)c2cc(N3C(=O)CC[C@H](NS(=O)(=O)CC(C)C)[C@H]3c3ccc(Cl)cc3)ccc12 ; value = 104
